- PROTOCOL_DETAILS: Example 2 multi-dose study: pharmacokinetics
- Type: in vivo, human
- SETUP_CONDITIONS: both sexes, human, in vivo, oral; 3 mg once daily, Study Day 14, mean
READOUT: half-life

Need half-life of O=C(Nc1nc(-c2cc(Cl)cs2)c(N2CCN(C3CCCCC3)CC2)s1)c1cnc(N2CCC(C(=O)O)CC2)c(Cl)c1 , thanks.
18.2 h

====

- PROTOCOL_DETAILS: Example 1 single dose study: pharmacokinetics
- Assay type: in vivo, human
- SETUP_CONDITIONS: both sexes, human, serum, po, 10 mg, single oral dose 10 mg, healthy volunteers, final mean; read-out: T½ (converted)
READOUT: half-life (min)
Just the number in min, nothing appended.

Fill in the blank: the reported half-life of O=C(Nc1nc(-c2cc(Cl)cs2)c(N2CCN(C3CCCCC3)CC2)s1)c1cnc(N2CCC(C(=O)O)CC2)c(Cl)c1 is ____.
1310

Source: patent US20110224226A1
